Overview of reported IC50 across a group of molecules:
target: LATS1 Kinase-NanoLuc fusion in HEK-293 cells (Homo sapiens); construct: host or cells: HEK-293; experiment: NanoBRET target engagement assay in transfected HEK-293 cells, LATS1; format: cell-based; conditions: Table 28, NanoBRET, HEK-293 cells; read-out: LATS1 (Cellular) IC50
MEASUREMENT TYPE: IC50 (nM)

Cc1cc(-c2ccnc3[nH]cc(F)c23)ccc1[C@@]1(O)[C@H](C)CN(C2CCS(=O)(=O)CC2)C[C@@H]1C [Compound 55]	367
Cc1cc(-c2ccnc3[nH]cc(F)c23)cc(F)c1[C@@]1(O)[C@H](C)CN(C(=O)[C@@H](CO)N(C)C)C[C@@H]1C [Compound 313]	43
Cc1cc(-c2ccnc3[nH]cc(F)c23)cc(F)c1[C@@]1(O)[C@H](C)CN(C2CCS(=O)(=O)CC2)C[C@@H]1C [Compound 57]	36.9
Cc1cc(-c2ccnc3[nH]cc(F)c23)ccc1[C@@]1(O)[C@H](C)CN(C(C)C)C[C@@H]1C [Compound 29]	86
Cc1cc(-c2ccnc3[nH]cc(F)c23)ccc1[C@@]1(O)[C@H](C)CN(C2COC2)C[C@@H]1C [Compound 24]	127
C[C@@H]1CNC[C@H](C)[C@@]1(O)c1ccc(-c2ccnc3[nH]cc(F)c23)cc1F [Compound 7]	247
C[C@@H]1CNC[C@H](C)[C@@]1(O)c1ccc(-c2ccnc3[nH]cc(F)c23)cc1Cl [Compound 1]	203

###

target: AKT (Homo sapiens, UniProt P31749); experiment: RBC HotSpot kinase assay (33P-ATP, P81 filter-binding), AKT; assay type: biochemical; conditions: Table 28, biochemical kinase assay; read-out: AKT IC50
Sequence (P31749 whole entry): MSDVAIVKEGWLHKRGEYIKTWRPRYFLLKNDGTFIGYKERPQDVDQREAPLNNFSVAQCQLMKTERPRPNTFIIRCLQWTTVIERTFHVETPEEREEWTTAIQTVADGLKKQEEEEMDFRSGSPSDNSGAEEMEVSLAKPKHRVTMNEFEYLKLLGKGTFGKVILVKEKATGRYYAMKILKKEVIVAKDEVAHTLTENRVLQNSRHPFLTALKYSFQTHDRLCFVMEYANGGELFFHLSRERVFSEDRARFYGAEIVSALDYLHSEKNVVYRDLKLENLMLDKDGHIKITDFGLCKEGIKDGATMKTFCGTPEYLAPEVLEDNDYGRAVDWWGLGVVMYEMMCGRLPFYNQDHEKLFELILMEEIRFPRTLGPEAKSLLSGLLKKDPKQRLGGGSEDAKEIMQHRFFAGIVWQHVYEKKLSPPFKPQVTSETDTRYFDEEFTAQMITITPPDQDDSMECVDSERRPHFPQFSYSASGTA
pIC50: −log10 of the molar value.
Overview of reported pIC50 across a group of molecules:
MEASUREMENT TYPE: pIC50

CN(C)CCS(=O)(=O)N1CCC(c2ccc(-c3ccnc4[nH]cc(F)c34)cc2Cl)CC1	5.07
COc1cc(-c2ccnc3[nH]ccc23)ccc1C1CCNCC1	5.59
COC(=O)c1c[nH]c2nccc(-c3ccc([C@@]4(O)[C@H](C)CN(C(=O)CN)C[C@@H]4C)c(C)c3)c12	5.98

###

Target: LATS1 (Homo sapiens)
Sequence (O95835 1-1130): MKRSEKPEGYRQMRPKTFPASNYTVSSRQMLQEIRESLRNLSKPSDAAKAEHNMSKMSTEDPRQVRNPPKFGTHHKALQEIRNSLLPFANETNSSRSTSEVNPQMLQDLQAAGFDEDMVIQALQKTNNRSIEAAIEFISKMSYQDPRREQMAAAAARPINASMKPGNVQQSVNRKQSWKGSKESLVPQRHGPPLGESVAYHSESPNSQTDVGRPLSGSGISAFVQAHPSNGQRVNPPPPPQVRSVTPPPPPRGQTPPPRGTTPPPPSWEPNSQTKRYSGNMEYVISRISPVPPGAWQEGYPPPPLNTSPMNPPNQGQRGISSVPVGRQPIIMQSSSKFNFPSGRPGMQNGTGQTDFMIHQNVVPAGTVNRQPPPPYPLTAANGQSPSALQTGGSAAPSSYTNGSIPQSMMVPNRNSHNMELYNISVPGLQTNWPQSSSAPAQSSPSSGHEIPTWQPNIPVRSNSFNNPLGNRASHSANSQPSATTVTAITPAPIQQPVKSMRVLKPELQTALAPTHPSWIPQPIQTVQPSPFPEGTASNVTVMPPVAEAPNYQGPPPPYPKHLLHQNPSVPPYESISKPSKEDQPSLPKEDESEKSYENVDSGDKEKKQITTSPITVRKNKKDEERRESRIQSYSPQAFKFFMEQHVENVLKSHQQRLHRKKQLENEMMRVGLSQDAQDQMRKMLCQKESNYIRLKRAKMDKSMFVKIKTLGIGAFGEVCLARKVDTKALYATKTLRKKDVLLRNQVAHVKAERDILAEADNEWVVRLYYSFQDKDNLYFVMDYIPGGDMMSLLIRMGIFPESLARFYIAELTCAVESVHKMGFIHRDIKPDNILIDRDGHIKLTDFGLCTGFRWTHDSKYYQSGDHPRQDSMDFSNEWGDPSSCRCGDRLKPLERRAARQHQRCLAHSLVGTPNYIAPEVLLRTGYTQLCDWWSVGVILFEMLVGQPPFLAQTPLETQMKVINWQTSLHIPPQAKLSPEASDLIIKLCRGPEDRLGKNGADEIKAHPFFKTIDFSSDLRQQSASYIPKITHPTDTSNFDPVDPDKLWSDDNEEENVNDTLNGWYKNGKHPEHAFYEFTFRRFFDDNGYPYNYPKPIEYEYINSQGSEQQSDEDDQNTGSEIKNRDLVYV
Experiment: RBC HotSpot kinase assay (33P-ATP, P81 filter-binding), LATS1
Assay type: biochemical
Conditions: Table 32, biochemical kinase assay; read-out: LATS1 IC50
Overview of reported IC50 across a group of compounds:
MEASUREMENT TYPE: IC50 (nM)

NCC(O)(c1ccc(Cl)cc1)c1ccc(-c2ccnc3[nH]cc(Cl)c23)cc1 (stereo not shown) [Compound 1003]	31.7
O=C(NCC(O)(c1ccc(Cl)cc1)c1ccc(-c2ccnc3[nH]ccc23)cc1)[C@@H]1CCCN1 (stereo partly shown) [Compound 1023]	3.4
O=C(NCC(O)(c1ccc(Cl)cc1)c1ccc(-c2ccnc3[nH]ccc23)cc1)[C@H]1CCCN1 (stereo partly shown) [Compound 1024]	3.7
NCC(=O)NCC(O)(c1ccc(Cl)cc1)c1ccc(-c2ccnc3[nH]ccc23)cc1 (stereo not shown) [Compound 1020]	3
